Every entry's value here was drawn from PubChem BioAssay AID1963848.

- Test system: 379773-124-R-J2-PDC spheroid viability
- experimental_details: Anticancer human tumor 379773-124-R-J2-PDC patient-derived endometrial carcinoma cell line growth inhibition [POLQ]
- recorded_conditions: second compound 0.1 µM; first compound 0.1 µM; active compounds read low; spheroids with HUVEC and MSC
Please assign f whenever viability, T/C is at or above 80%, and t whenever it is below.

CC1COCCN1c1cc(C2(S(C)(=N)=O)CC2)nc(-c2ccnc3[nH]ccc23)n1 (stereo not given) + Cc1cccc(N(C)C(=O)C2C(O)CCN2c2nc(C)cc(C(F)(F)F)c2C#N)c1 = f

Request: Below 80% on viability, T/C? Entry Nc1ccn(C2OC(CO)C(O)C2(F)F)c(=O)n1 (stereo not given) + Nc1ccc(C#CCN(C(=O)Cc2ncc(C(F)(F)F)cc2C(F)(F)F)c2ccc(F)cc2)nn1
Response: t

---

Catalogue of viability, T/C readings, one per entry.
- System: 379773-124-R-J2-PDC spheroid viability
- experimental_details: Anticancer human tumor 379773-124-R-J2-PDC cell line growth inhibition [POLQ];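 also: spheroids exposed to drugs for seven days before readout; percent viability relative to DMSO vehicle control taken as 100%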
- recorded_conditions: second compound 1 µM; first compound 0.1 µM; active compounds read low; spheroids with HUVEC and MSC
Write down the numeric answer in % and omit the unit.

Below, each entry is followed by its recorded viability, T/C result.
COc1cc2cc(C(=O)CCC(=O)O)sc2cc1OC + Nc1ccc(C#CCN(C(=O)Cc2ncc(C(F)(F)F)cc2C(F)(F)F)c2ccc(F)cc2)nn1 = 84
CCc1cc2c(N3CCc4c(cc(Cn5ccnc5)cc4-c4cn(C)nc4C(F)(F)F)C3=O)ccnc2c(OC)n1 + Nc1ccc(C#CCN(C(=O)Cc2ncc(C(F)(F)F)cc2C(F)(F)F)c2ccc(F)cc2)nn1 = 69
COc1cccc2c1C(=O)c1c(O)c3c(c(O)c1C2=O)CC(O)(C(=O)CO)CC3OC1CC(N)C(O)C(C)O1 (stereo not given) + Cc1cccc(N(C)C(=O)C2C(O)CCN2c2nc(C)cc(C(F)(F)F)c2C#N)c1 = 20.8
C=CC(=O)N1CCN(c2nc(=O)n(-c3c(C)ccnc3C(C)C)c3nc(-c4c(O)cccc4F)c(F)cc23)C(C)C1 (stereo not given) + COC1C(OC(N)=O)C(O)C(Oc2ccc3c(O)c(NC(=O)c4ccc(O)c(CC=C(C)C)c4)c(=O)oc3c2C)OC1(C)C = 94.8

Then this compound:
Request: Query the reported viability, T/C for 379773-124-R-J2-PDC spheroid viability; item: CCc1cc2c(N3CCc4c(cc(Cn5ccnc5)cc4-c4cn(C)nc4C(F)(F)F)C3=O)ccnc2c(OC)n1 + Cc1cccc(N(C)C(=O)C2C(O)CCN2c2nc(C)cc(C(F)(F)F)c2C#N)c1
Response: 68.9

---

- System: 379773-124-R-J2-PDC spheroid viability
- experimental_details: Anticancer human tumor 379773-124-R-J2-PDC cell line growth inhibition [POLQ];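 also: spheroids exposed to drugs for seven days before readout; percent viability relative to DMSO vehicle control taken as 100%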
- recorded_conditions: second compound 0.1 µM; first compound 0.1 µM; active compounds read low; spheroids with HUVEC and MSC
Friendly reminder: viability, T/C below 50% is TRUE, at or above is FALSE.

CC(C)n1c(=O)n(C)c2cnc3cc(F)c(-c4ccc(OCCCN5CCCCC5)nc4)cc3c21 + Cc1cccc(N(C)C(=O)C2C(O)CCN2c2nc(C)cc(C(F)(F)F)c2C#N)c1 = FALSE

Request: Dear colleague, could you confirm whether viability, T/C of CC[C@@]1(O)C(=O)OCc2c1cc1n(c2=O)Cc2cc3c(CN(C)C)c(O)ccc3nc2-1 + Nc1ccc(C#CCN(C(=O)Cc2ncc(C(F)(F)F)cc2C(F)(F)F)c2ccc(F)cc2)nn1 falls below 50%? Thanks.
Response: TRUE

Request: Lab log: compare recorded viability, T/C with 50%; is it strictly lower for C#Cc1c(F)ccc2cc(O)cc(-c3ncc4c(N5CC6CCC(C5)N6)nc(OCC56CCCN5CC(F)C6)nc4c3F)c12 (stereo not given) + COC1C(OC(N)=O)C(O)C(Oc2ccc3c(O)c(NC(=O)c4ccc(O)c(CC=C(C)C)c4)c(=O)oc3c2C)OC1(C)C ?
Response: FALSE

Request: Could you please tell me whether viability, T/C recorded for CC[C@@]1(O)C(=O)OCc2c1cc1n(c2=O)Cc2cc3c(CN(C)C)c(O)ccc3nc2-1 + Cc1cccc(N(C)C(=O)C2C(O)CCN2c2nc(C)cc(C(F)(F)F)c2C#N)c1 is less than 50%?
Response: TRUE
